The reported numbers originate from ChEMBL document CHEMBL1795228.

Assay: In-vitro air to lung partition coefficients of the compound, logK(lung) (human/rat)
Details: octanol/water
Param threshold (0.4) applies to logK(lung); output t when value >= threshold, f when value < threshold.

Worked examples follow.
MOLECULE | LABEL
CC1CCCC1 | f
CCC(C)(C)C | f
ClC(Cl)=C(Cl)Cl | t
CC(C)CO | t
ClC(Cl)Cl [CHLOROFORM] | t
CCCCCC | f

Problem: Record CCCC(C)C ; criterion: logK(lung) no lower than 0.4. Met?
Solution: f

Problem: Record C=C ; criterion: logK(lung) no lower than 0.4. Met?
Solution: f

Problem: Record CC(Cl)(Cl)Cl ; criterion: logK(lung) no lower than 0.4. Met?
Solution: t

Problem: Record C=CC ; criterion: logK(lung) no lower than 0.4. Met?
Solution: f

Problem: Record FC(F)OC(Cl)C(F)(F)F (stereo unspecified) ; criterion: logK(lung) no lower than 0.4. Met?
Solution: f

Problem: Record FC(F)(F)c1ccc(Cl)cc1 ; criterion: logK(lung) no lower than 0.4. Met?
Solution: t

----------
Test: In-vivo plasma to lung partition coefficients of the compound, logP(lung) in rat
Type: ADME, cell-free
PROPERTY_LABEL: logP(lung)
Just the number.

Past entries and their recorded results:
MOLECULE | logP(lung)
CCc1ccc(C(=O)C(C)CN2CCCC2)cc1 (stereo unspecified) | 1.52
CSc1ccc2c(c1)N(CCC1CCCCN1C)c1ccccc1S2 (stereo unspecified) | 1.13

Problem: logP(lung) for CCCCCC1(CC)C(=O)NC(=O)NC1=O ?
Solution: 0.22

Problem: logP(lung) for c1ccc(C2(N3CCCCC3)CCCCC2)cc1 ?
Solution: 1.61

Problem: logP(lung) for COC(=O)[C@H]1[C@@H](OC(=O)c2ccccc2)C[C@@H]2CC[C@H]1N2C ?
Solution: 1.06

----------
Assay: In-vitro air to lung partition coefficients of the compound, logK(lung) (human/rat)
Settings: octanol/water
PROPERTY_LABEL: logK(lung)
Just the number.

Past entries and their recorded results:
COMPOUND | logK(lung)
CO | 3.24
CC | -1.28

Problem: logK(lung) for [N-]=[N+]=O [NITROUS OXIDE] ?
Solution: -0.37

Problem: logK(lung) for O=O ?
Solution: -1.62

Problem: logK(lung) for CCC(C)=O ?
Solution: 2.01

Problem: logK(lung) for ClCCl [METHYLENE CHLORIDE] ?
Solution: 0.76

Problem: logK(lung) for [C-]#[O+] [CARBON MONOXIDE] ?
Solution: -1.69

Problem: logK(lung) for CC(C)=O ?
Solution: 2.2

----------
Assay: In-vitro air to blood partition coefficients of the compound, logK(blood) (human/rat)
Settings: octanol/water
# logK(blood) values compiled below
Just the number.

Past entries and their recorded results:
MOLECULE | logK(blood)
ClC(Cl)Cl [CHLOROFORM] | 1.15
CC1CCCC1 | -0.07

Problem: logK(blood) for FC(F)OC(Cl)C(F)(F)F (stereo unspecified) ?
Solution: 0.2

Problem: logK(blood) for O=O ?
Solution: -1.58

Problem: logK(blood) for CCC(C)(C)C ?
Solution: -0.59

Problem: logK(blood) for CCC(C)=O ?
Solution: 2.24

Problem: logK(blood) for C1CCCCC1 ?
Solution: 0.17

Problem: logK(blood) for CCCCCCC ?
Solution: 0.5

Problem: logK(blood) for FS(F)(F)(F)(F)F [SULFUR HEXAFLUORIDE] ?
Solution: -2.17

Problem: logK(blood) for CC ?
Solution: -1.02

Problem: logK(blood) for CC(C)CO ?
Solution: 2.92

Problem: logK(blood) for FC(F)(F)c1ccc(Cl)cc1 ?
Solution: 1.43

Problem: logK(blood) for CO ?
Solution: 3.41
